Numbers sourced from paper PMC3142620.

target: LYN (Homo sapiens, UniProt P07948)
Sequence (P07948 whole entry): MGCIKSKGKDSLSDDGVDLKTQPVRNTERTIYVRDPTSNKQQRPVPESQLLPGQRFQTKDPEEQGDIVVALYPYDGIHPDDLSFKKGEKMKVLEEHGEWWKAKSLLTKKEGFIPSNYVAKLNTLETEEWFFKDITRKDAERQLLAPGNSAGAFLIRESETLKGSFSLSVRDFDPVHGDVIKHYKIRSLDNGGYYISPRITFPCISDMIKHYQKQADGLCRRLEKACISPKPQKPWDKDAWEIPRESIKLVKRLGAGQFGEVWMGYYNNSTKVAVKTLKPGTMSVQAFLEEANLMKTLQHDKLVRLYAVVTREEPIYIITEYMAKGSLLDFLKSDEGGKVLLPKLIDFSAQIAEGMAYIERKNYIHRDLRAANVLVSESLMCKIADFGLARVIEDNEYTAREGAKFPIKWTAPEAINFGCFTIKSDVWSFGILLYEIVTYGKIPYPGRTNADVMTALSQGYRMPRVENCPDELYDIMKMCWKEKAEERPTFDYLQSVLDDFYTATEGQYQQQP
outcome.measure: pKd
When answering, recall that pKd equals minus log10 of the concentration in mol/L, and write that number alone.

Data point: Nc1ncnc2c1ncn2[C@@H]1O[C@H](COP(=O)(O)OP(=O)(O)OP(=O)(O)O)[C@@H](O)[C@H]1O [ATP] ; pKd = 6.00

###

Exercise: state measured Kd for each of the molecules provided.
biological target: JNK1/2/3; assay: KiNativ probe-based profiling, HL60 and PC3 proteomes; conditions: read-out: Kd app; 5 μM probe, 15 min pre-incubation

# Kd (molecule: Nc1ncnc2c1ncn2[C@@H]1O[C@H](COP(=O)(O)OP(=O)(O)OP(=O)(O)O)[C@@H](O)[C@H]1O [ATP] ) is 19 µM

The recorded Kd for entry C#Cc1cccc(Nc2ncnc3cc(OCCOC)c(OCCOC)cc23)c1 [erlotinib] equals > 10 µM
